Recorded values, source ChEMBL document CHEMBL5303304.

# System: U2OS
# assay protocol: Incucyte cell viability with U2OS; note: unitless GR value; below 1 slowed growth and below 0 cell loss
# Assay type: toxicity, cell-based
# run conditions: human, 18 h, 10 µM, compound concentration 10 uM, replicate number 2
property name: Growth Rate
Give a plain numeric answer without units written out.

// below: answered compounds
compound	study system	Growth Rate
CC(C)S(=O)(=O)c1ccccc1Nc1nc(N[C@@H]2CCCN(CCCCCCCNC(=O)COc3cccc4c3C(=O)N(C3CCC(=O)NC3=O)C4=O)C2)ncc1Cl (stereo partly specified)	U2OS	0.15
CCOC(=O)C1=C[C@]2(CC)CCCN3CCc4c(n1c1ccccc41)[C@@H]32 [VINPOCETINE]	U2OS	0.73
CN(C)C/C=C/C(=O)Nc1ccc(C(=O)Nc2cccc(Nc3ncc(Cl)c(-c4c[nH]c5ccccc45)n3)c2)cc1	U2OS	0.55
Cc1ncsc1-c1ccc(CNC(=O)[C@@H]2C[C@@H](O)CN2C(=O)[C@@H](NC(=O)CCCCNC(=O)c2ccc(-c3ccc(N4CCN(C)CC4)c(NC(=O)c4c[nH]c(=O)cc4C(F)(F)F)c3)cc2)C(C)(C)C)cc1	U2OS	0.79

Form: item `CCS(=O)(=O)Nc1cccc(Oc2cc(F)cc(Nc3ccc(I)cc3F)c2NS(=O)(=O)C2CC2)c1` ; test system U2OS; Growth Rate: 1

I looked up `Cc1ccc(-c2c(C(=O)CF)n(CCCO)c3ncnc(N)c23)cc1` and its Growth Rate for U2OS was 0.96

Bench note, U2OS: entry `COc1cc2c(NC3CCN(C(C)C)CC3)nc(C3CCCCC3)nc2cc1OCCCN1CCCC1` , its Growth Rate = -0.16
